# assay_overview: soluble on expression in E. coli; label from the status in PepcDB or PDB records
quantity_kind: soluble on expression in E. coli

MFQLPILNFSPQQVAGVCETLEESGDVERLGRFLWSLPVAPAACEALNKNESVLRARAIVAFHGGNYRELYHILENHKFTKESHAKLQALWLEAHYQEAEKLRGRPLGPVDKYRVRKKFPLPRTIWDGEQKTHCFKERTRHLLREWYLQDPYPNPSKKRELAQATGLTPTQVGNWFKNRRQRDRAAAAKNRLQQQVLSQGPGRVLRSEGEGTPEVLGVASSPAASLSSKAATSAISITSSDSECDI soluble
GVNPRGLGPLQIWQTDFTLEPRMAPRSWLAVTVDTASSAIVVTQHGRVTSVAVQHHWATAIAVLGRPKAIKTDNGSCFTSKSTREWLARWGIAHTTGIPGNSQGQAMVERANRLLKDRIRVLAEGDGFMKRIPTSKQGELLAKAMYALNHKERGENTKTPIQKHWRPTVLTEGPPVKIRIETGEWEKGWNVLVWGRGYAAVKNRDTDKVIWVPSRKVKPDITQKDEVTKKDEASPLFA soluble
MEQQFILRLHESIKHVVDLGNSTIDICDDRSVVLTHNNKKYPGIVVRLPCIVESQKTMDSRQHYKVADISTLVVVYPDDSFDFDKEREMYELSGLSPPLKYVKARRFRKKSSKIEYVEEIEKKVNDLLEKDMKARSVEVVAKEEKETSDDLDVLAAEIENKLVDNAEAHKEEVQSRPDEIGEKKEEQPRNEEIERLEKGIEEKRRQMESALNPILQKRFESQLNVLLKELEDVKKGMEME soluble
